gcPBM binding intensity (ln): recorded values
# Tested on: PfAP2-I AP2 domain 3 (GST-tagged)
# assay: gcPBM binding intensity (ln(normalized median fluorescence intensity)); higher = stronger DNA binding
Over roughly 25,000 sequences, “ln(normalized median fluorescence intensity)” has its median near 7.9; the highest 2% begin near 11. Only a selection was taken, and the highest values are over-represented in it overall.
Provide a numeric answer; units are not to be included.

gcPBM binding intensity (ln) for TATAATGTATGTAGTGCACACCTCTATAATATATTA [CACACA_site8560] ? 10.9

----------
# System: PfAP2-I AP2 domain 3 (GST-tagged)
# assay: gcPBM binding intensity (ln(normalized median fluorescence intensity)); higher = stronger DNA binding
The full ranking holds about 25,000 sequences; the median of “ln(normalized median fluorescence intensity)” is about 7.9, and the highest 2% start at about 11. The list comes from a sample in which the highest values are over-represented; it also holds close analogues and randomly drawn sequences.
gcPBM binding intensity (ln): recorded values
Provide a numeric answer; units are not to be included.

1) ATATTACAAATATAATGTACAAAATATAAATATGCA [XGTACX_site8106] = 7.62
2) AAAAATATAATATAATGTACACAAAAAAAAAAAAAT [XGTACX_site4914] = 8.18
3) ATATAATATTAGTGCACACACAAAAATGTACTAAAC [CACACA_site632] = 11.3

gcPBM binding intensity (ln) for GAAACTATGTAATGCACACCAAAATAAAATTATTAA [CACACA_site1904] ? 10.9

Moving on to the next sequence: TAGAAACTATGTAATGCACACCAAAATAAAATTATT [CACACA_site8578] 10.4
